Target: IRF5
Conditions: ASO, KARPAS-229, 4 µM
After the bases stand the sugars from the 5' end (letter, count) and the backbone: PS all phosphorothioate, else s phosphorothioate and o phosphodiester by linkage. Methylation of C is not given here. e = 2'-O-(2-methoxyethyl) (MOE); k = constrained ethyl (cEt); d = 2'-deoxy (DNA)
Response key: met means target mRNA inhibition >= 20%; not met means target mRNA inhibition < 20%.

Examples from the recorded data:
# item_sequence, qualitative_label
records = [
    ("CATTCCATATACACAC (sugars kkdddddddddkdkdk, PS)", "met"),
    ("TAGTGTCATGGAATTT (sugars k3 d10 k3, PS)", "met"),
    ("GTGTATTTCCCTGTCT (sugars kkdddddddddkdkdk, PS)", "not met"),
    ("TGAGACGAGCAAAGGG (sugars k3 d10 k3, PS)", "met"),
    ("CACATCTCCACATCAG (sugars kddddddddddkekek, PS)", "not met"),
]

IN: # bool: target mRNA inhibition of CCTTCTGCAGGGAGTC (sugars kkddddddddddkeke, PS) >= 20%
OUT: not met

IN: # bool: target mRNA inhibition of CCATTCTATGCCTTTT (sugars kkkddddddddkekek, PS) >= 20%
OUT: met

* * *

Target: APOL1
Conditions: ASO, A431, 2 µM
After the bases stand the sugars from the 5' end (letter, count) and the backbone: PS all phosphorothioate, else s phosphorothioate and o phosphodiester by linkage. Methylation of C is not given here. e = 2'-O-(2-methoxyethyl) (MOE); k = constrained ethyl (cEt); d = 2'-deoxy (DNA)
endpoint: target mRNA inhibition (%)
Give bare numbers, in %.

These solved cases illustrate the format of a correct answer.
# item_sequence, assayed_target, target mRNA inhibition (%)
measured = [
    ("TTATATTTGATCCTCA (sugars kkddddkekekkdddd, PS)", "APOL1", 69),
    ("GAATTATGGAATTGCA (sugars k2 d4 e3 k2 d5, PS)", "APOL1", 94),
]

# batch size: 8; output target mRNA inhibition per entry
1. GTTATGAAATTATTGG (sugars k2 d4 e3 k2 d5, PS)
2. CGTCAATATATTCTTT (sugars k3 d5 k3 d5, PS)
3. GTTCAAAAGCAGCATT (sugars kkddddkekekkdddd, PS)
4. GCTTTAAACTCAGGTG (sugars kddddkekekeddddd, PS)
5. GTTATGAAATTATTGG (sugars kkkddddkdkdkdddd, PS)
6. TCTCATGGTACAGGAG (sugars kkddddkekekkdddd, PS)
7. GTGAGTATTGTTTTTG (sugars kkddddkekekddddd, PS)
8. CGTCAATATATTCTTT (sugars k2 d4 e3 k2 d5, PS)

OUT:
54
94
34
67
91
26
88
81

* * *

Molecular target: ANGPTL2
Conditions: ASO, 5 µM
After the bases stand the sugars from the 5' end (letter, count) and the backbone: PS all phosphorothioate, else s phosphorothioate and o phosphodiester by linkage. Methylation of C is not given here. l = locked nucleic acid (LNA); d = 2'-deoxy (DNA)
endpoint: target mRNA inhibition (%)
Give bare numbers, in %.

These solved cases illustrate the format of a correct answer.
# item_sequence, target mRNA inhibition / %
records = [
    ("ATTGTGGGTTGGAGGGC (sugars l1 d14 l2, PS)", 30.3),
    ("TTGGTTCGTCAGCCAG (sugars l1 d12 l3, PS)", 49.1),
    ("AAGAGAGAAGGCAGTGAGAG (sugars l2 d16 l2, PS)", 24.8),
    ("AAGTTGATAGTTTATCTC (sugars l4 d11 l3, PS)", 91.6),
    ("ATCAATAGGCAGACAGGC (sugars l2 d14 l2, PS)", 50.1),
]

# batch size: 3; output target mRNA inhibition per entry
1. CCATTTTGAGATTCCCCCAA (sugars l3 d15 l2, PS)
2. TTAGTGGAAGGTGTTGG (sugars l3 d12 l2, PS)
3. ACCCTCCATCCTTCACC (sugars l2 d13 l2, PS)

OUT:
1. 44.4
2. 51.1
3. 34.7

# batch size: 5; output target mRNA inhibition per entry
1. TGTTTGGAAATGTTATCT (sugars l3 d11 l4, PS)
2. ATTTTGAGATTCCCCCAAA (sugars l1 d14 l4, PS)
3. GCCAACACTAACTCGGC (sugars l1 d14 l2, PS)
4. AGTAGCCTTCTGACCAA (sugars l1 d13 l3, PS)
5. TAATAGGCACACACCCAGAC (sugars l1 d17 l2, PS)

OUT:
1: 80.9; 2: 7.37; 3: 30.6; 4: 48.5; 5: 27.2

# batch size: 4; output target mRNA inhibition per entry
1. TTTCTAAACTCTCACCCTG (sugars l1 d15 l3, PS)
2. CCACCCATTTAGCCTTC (sugars l1 d14 l2, PS)
3. GAAGAAAAGAGCACATGG (sugars l3 d11 l4, PS)
4. GCTCCGGTAATGGCCC (sugars l1 d12 l3, PS)

OUT:
1. 26.4
2. 46.7
3. 33.2
4. 25.9

# batch size: 6; output target mRNA inhibition per entry
1. GTTGATAGTTTATCTCC (sugars l3 d12 l2, PS)
2. CCAACACTAACTCGGC (sugars l2 d12 l2, PS)
3. GTGGGCAAGAGGGATGC (sugars l1 d14 l2, PS)
4. TTGATGATGCGGTTGTA (sugars l3 d12 l2, PS)
5. CTAGACATACCATCTA (sugars l3 d10 l3, PS)
6. ATAGTGGGCAGAGGGGG (sugars l1 d14 l2, PS)

OUT:
1: 87.4; 2: 36; 3: 35; 4: 76.5; 5: 34.9; 6: 21.6

* * *

What target mRNA inhibition was measured for each of the following?
Biological target: APOL1
Conditions: ASO, A431, 1 µM
After the bases stand the sugars from the 5' end (letter, count) and the backbone: PS all phosphorothioate, else s phosphorothioate and o phosphodiester by linkage. Methylation of C is not given here. e = 2'-O-(2-methoxyethyl) (MOE); k = constrained ethyl (cEt); d = 2'-deoxy (DNA)
Numbers only, in %.

# item_sequence, endpoint, number
measured = [
    ("CCTTACTGCAGTTTCA (sugars k4 d9 k3, PS)", "target mRNA inhibition", 91),
]

# batch size: 3; output target mRNA inhibition per entry
1. GTTATGAAATTATTGG (sugars k3 d4 k3 e1 d5, PS)
2. GGAATTATGGAATTGC (sugars k2 d4 e3 k2 d5, PS)
3. CTTTAAACTCAGGTGA (sugars k2 d4 e3 k2 d5, PS)

OUT:
93
96
85

* * *

Target: DGAT2
Conditions: ASO, HepG2, 2.5 µM
After the bases stand the sugars from the 5' end (letter, count) and the backbone: PS all phosphorothioate, else s phosphorothioate and o phosphodiester by linkage. Methylation of C is not given here. e = 2'-O-(2-methoxyethyl) (MOE); d = 2'-deoxy (DNA)
What target mRNA inhibition was measured for each of the following?
Answers are plain numbers, in %.

These solved cases illustrate the format of a correct answer.
# item_sequence, number
rows = [
    ("GCTTGTCGAAGAGCTTCACC (sugars e5 d10 e5, PS)", 25),
    ("GGCATGCTTCCTCCCACTTC (sugars e5 d10 e5, PS)", 67),
    ("GTCAAACCTAGGTTCAGACT (sugars e5 d10 e5, PS)", 68),
    ("GGTAAGGCCAAGGAAGTGAG (sugars e5 d10 e5, PS)", 66),
]

Here's the next entry for you.
IN: What target mRNA inhibition value was documented for this sequence, TATTCTAAAACTCAAATCCA (sugars e5 d10 e5, PS) ?
OUT: 21

* * *

Molecular target: DGAT2
Details: ASO, HepG2, 10 µM
After the bases stand the sugars from the 5' end (letter, count) and the backbone: PS all phosphorothioate, else s phosphorothioate and o phosphodiester by linkage. Methylation of C is not given here. e = 2'-O-(2-methoxyethyl) (MOE); d = 2'-deoxy (DNA)
endpoint: target mRNA inhibition
Reply with the number and its unit after it.

These solved cases illustrate the format of a correct answer.
# item_sequence, assayed_target, result
measured = [
    ("AGGACACCTGGAGCTGCGGC (sugars e5 d10 e5, PS)", "DGAT2", "84%"),
    ("ACAACTCTCTTGTTGGGAGG (sugars e5 d10 e5, PS)", "DGAT2", "84%"),
]

# batch size: 4; output target mRNA inhibition per entry
1. TGTGCTCTGTGGGCTCCTCC (sugars e5 d10 e5, PS)
2. GAAATCCAATGCACCTTGTA (sugars e5 d10 e5, PS)
3. AGGAAAACTTAGGCATGCTT (sugars e5 d10 e5, PS)
4. AACCACAGCGATAATCACAC (sugars e5 d10 e5, PS)

OUT:
["85%", "94%", "84%", "91%"]
